Listed here are compounds together with their documented MIC.
- Test system: Staphylococcus aureus
- PROTOCOL_NOTES: Antibacterial activity against methicillin-resistant Staphylococcus aureus ATCC 33591 after 24 hrs by broth microdilution assay
- Type: functional
- COND: ATCC 33591, 24 h
Report the figure in µg/mL without appending any unit label.

Solved entries:
{"columns": ["STRUCTURE_STRING", "MEASUREMENT_UNIT", "MEASURED_RESULT"],
 "data": [
  ["CCN(Cc1c2ccccc2c(Cl)c2ccccc12)C(=O)[C@@H](N)CCCCN.O=C(O)C(F)(F)F.O=C(O)C(F)(F)F", "µg/mL", 21],
  ["CN[C@H](CC(C)C)C(=O)N[C@H]1C(=O)N[C@@H](CC(N)=O)C(=O)N[C@H]2C(=O)N[C@H]3C(=O)N[C@H](C(=O)N[C@H](C(=O)O)c4cc(O)cc(O)c4-c4cc3ccc4O)[C@H](O)c3ccc(c(Cl)c3)Oc3cc2cc(c3O[C@@H]2O[C@H](CO)[C@@H](O)[C@H](O)[C@H]2O[C@H]2C[C@](C)(N)[C@H](O)[C@H](C)O2)Oc2ccc(cc2Cl)[C@H]1O", "µg/mL", 0.9],
  ["CCCCCCCCN(Cc1cccc2ccccc12)C(=O)[C@@H](N)CCCCN.O=C(O)C(F)(F)F.O=C(O)C(F)(F)F", "µg/mL", 4.4]
]}

// next entry
Lab note: need MIC for `CCCCCCCCCCCCN(Cc1cccc2ccccc12)C(=O)[C@@H](N)CCCCN.O=C(O)C(F)(F)F.O=C(O)C(F)(F)F` on Staphylococcus aureus, anyone have it? 2.7

---

Collected MIC values appear next to each entry.
- Tested on: Staphylococcus aureus
- PROTOCOL_NOTES: Antibacterial activity against methicillin-resistant Staphylococcus aureus ATCC 33591 after 24 hrs by broth microdilution assay
- Assay type: functional
- COND: ATCC 33591, 24 h
Response body: numeric value in µg/mL, unit text excluded.

{"columns": ["STRUCTURE_STRING", "ASSAY_TARGET", "MIC / µg/mL"],
 "data": [
  ["CCCCCCCCCCN(Cc1ccccc1)C(=O)[C@@H](N)CCCCN.O=C(O)C(F)(F)F.O=C(O)C(F)(F)F", "Staphylococcus aureus", 15.7],
  ["CCCCCCN(Cc1cccc2ccccc12)C(=O)[C@@H](N)CCCCN.O=C(O)C(F)(F)F.O=C(O)C(F)(F)F", "Staphylococcus aureus", 65],
  ["CCCCCCCCCCN(Cc1cccc2ccccc12)C(=O)[C@@H](N)CCCCN.O=C(O)C(F)(F)F.O=C(O)C(F)(F)F", "Staphylococcus aureus", 2.6],
  ["CCCCCCCCCCN(Cc1c2ccccc2c(Cl)c2ccccc12)C(=O)[C@@H](N)CCCCN.O=C(O)C(F)(F)F.O=C(O)C(F)(F)F", "Staphylococcus aureus", 4.6]
]}

Sample `CCCCCCCCCCCCCCN(Cc1ccccc1)C(=O)[C@@H](N)CCCCN.O=C(O)C(F)(F)F.O=C(O)C(F)(F)F` — what was its MIC? 2.5

---

Each entry below lists one item and its recorded HC50 at 1 h value.
- PROTOCOL_NOTES: Hemolytic activity in human erythrocytes after 1 hr by spectrophotometric analysis
- Assay type: ADME, cell-based, Erythrocyte
// note: answer is a bare numeric in µg/mL

{"columns": ["STRUCTURE_STRING", "MEASURED_RESULT"],
 "data": [
  ["CCCCCCCCCCCCCCN(Cc1ccccc1)C(=O)[C@@H](N)CCCCN.O=C(O)C(F)(F)F.O=C(O)C(F)(F)F", 50]
]}

Name the reported HC50 at 1 h value associated with the molecule `CCCCCCCCCCN(Cc1ccccc1)C(=O)[C@@H](N)CCCCN.O=C(O)C(F)(F)F.O=C(O)C(F)(F)F` 95
